test: Elimination half life in mouse liver microsomes at 0.1 umol/L in presence of NADPH by LC/MS/MS method; assay type: ADME, microsome; conditions: read-out: beta t1/2
property_measured: half-life at 0.1 µM (h)

# compound_structure, property_measured, quantitative_result
measured = [
    ("CC(C)(N)[C@H](NC(=O)c1ccc(C#CC#CC2CC2)c(F)c1)C(=O)NO", "half-life at 0.1 µM", 2.25),
]

I = CC(C)(N)[C@H](NC(=O)c1ccc(C#CC#CC2CC2)cc1)C(=O)NO
II = C[C@@H](O)[C@H](NC(=O)c1ccc(C#CC#CC2CC2)cc1F)C(=O)NO
III = C[C@@H](O)[C@H](NC(=O)c1ccc(C#CC#CC2CC2)c(F)c1)C(=O)NO
*Q* Sequence the entries by half-life at 0.1 µM, beginning with the highest number. # answer = labels listed in requested order
*A* I, III, II

I = C[C@@H](O)[C@H](NC(=O)c1ccc(C#CC#CC2CC2)cc1)C(=O)NO
II = CC(C)(N)[C@H](NC(=O)c1ccc(C#CC#CC2CC2)cc1O)C(=O)NO
*Q* When the recorded half-life at 0.1 µM values are compared, which is smaller: that of I or that of II ? Answer by stating the label of the chosen item.
*A* II

Hey, just so you know, these numbers are from ChEMBL document CHEMBL4177739.
